assay: self-splicing fitness, log relative to wild type (ln ratio); higher = more splicing; Tetrahymena group I intron in knt gene, E. coli kanamycin selection, DiMSum; sequences stand for … in CUCUCU…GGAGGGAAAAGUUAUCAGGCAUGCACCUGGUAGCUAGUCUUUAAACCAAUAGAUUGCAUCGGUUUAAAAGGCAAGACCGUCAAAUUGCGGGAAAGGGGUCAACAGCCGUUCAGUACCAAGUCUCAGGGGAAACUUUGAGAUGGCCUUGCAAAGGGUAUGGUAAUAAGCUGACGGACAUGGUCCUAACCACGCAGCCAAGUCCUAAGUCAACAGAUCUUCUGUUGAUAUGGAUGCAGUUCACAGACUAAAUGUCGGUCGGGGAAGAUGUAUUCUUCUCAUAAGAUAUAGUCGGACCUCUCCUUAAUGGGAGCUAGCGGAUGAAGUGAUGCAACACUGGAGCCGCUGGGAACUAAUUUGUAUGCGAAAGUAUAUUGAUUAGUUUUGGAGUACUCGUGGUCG; settings: 30 °C;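 note: selection with 25 µg/mL kanamycin versus none on LB agar overnight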
Would you mind labelling by self-splicing fitness (ln)? At or over -1 is 1, under is -1.

Past entries and their recorded results:
>>> category_label("AGACAGCAAUAUUACGCCGG")
-1
>>> category_label("CCGUAGCAAUAUUACGUAAU")
-1
>>> category_label("AAGUAGCAAUAUUACGUGCC")
1
>>> category_label("ACUGAGCAAUAUUACGAUUC")
-1

Reported self-splicing fitness (ln) reaches at least -1 for GUGAAGCAAUAUUACGCCUG ? 1

Reported self-splicing fitness (ln) reaches at least -1 for CGCAAGCAAUAUUACGAUCU ? -1

Reported self-splicing fitness (ln) reaches at least -1 for AGGCAGCAAUAUUACGUCAA ? -1

Reported self-splicing fitness (ln) reaches at least -1 for AAUUAGCAAUAUUACGGAAA ? -1

Reported self-splicing fitness (ln) reaches at least -1 for AUGUAGCAAUAUUACGUGAU ? -1

Reported self-splicing fitness (ln) reaches at least -1 for AUCCAGCAAUAUUACGGUCG ? 1

Reported self-splicing fitness (ln) reaches at least -1 for CCCUAGCAAUAUUACGAGUA ? -1

====

test: self-splicing fitness, log relative to wild type (ln ratio); higher = more splicing; Tetrahymena group I intron in knt gene, E. coli kanamycin selection, DiMSum; sequences stand for … in CUCUCU…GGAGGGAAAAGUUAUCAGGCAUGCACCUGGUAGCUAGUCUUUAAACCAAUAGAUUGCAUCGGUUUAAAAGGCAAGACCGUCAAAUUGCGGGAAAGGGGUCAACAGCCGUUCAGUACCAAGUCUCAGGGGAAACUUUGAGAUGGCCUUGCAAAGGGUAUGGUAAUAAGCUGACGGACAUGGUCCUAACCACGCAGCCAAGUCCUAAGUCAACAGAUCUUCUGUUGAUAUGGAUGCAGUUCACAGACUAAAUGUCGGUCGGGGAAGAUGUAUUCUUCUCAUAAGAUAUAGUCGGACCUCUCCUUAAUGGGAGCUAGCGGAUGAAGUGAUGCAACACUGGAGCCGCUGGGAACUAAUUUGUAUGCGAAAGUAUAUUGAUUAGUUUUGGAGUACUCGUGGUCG; conditions: 30 °C
Would you mind labelling by self-splicing fitness (ln)? At or over -3 is 1 (yes), under is 0 (no).

Past entries and their recorded results:
>>> category_label("UCACAGCAAUAUUACGUGAA")
"1 (yes)"
>>> category_label("CUACAGCAAUAUUACGAUUG")
"1 (yes)"
>>> category_label("UCCAAGCAAUAUUACGACGG")
"1 (yes)"

Reported self-splicing fitness (ln) reaches at least -3 for UAAUAGCAAUAUUACGAUAA ? 0 (no)

Reported self-splicing fitness (ln) reaches at least -3 for UAGUAGCAAUAUUACGCGCA ? 1 (yes)

Reported self-splicing fitness (ln) reaches at least -3 for UUAGAGCAAUAUUACGGUAG ? 1 (yes)

Reported self-splicing fitness (ln) reaches at least -3 for GAUAAGCAAUAUUACGCUUA ? 0 (no)

Reported self-splicing fitness (ln) reaches at least -3 for AAUAAGCAAUAUUACGCACG ? 1 (yes)

Reported self-splicing fitness (ln) reaches at least -3 for ACCGAGCAAUAUUACGCGGG ? 0 (no)

Reported self-splicing fitness (ln) reaches at least -3 for UAGAAGCAAUAUUACGUGUA ? 1 (yes)

====

experiment: self-splicing fitness, log relative to wild type (ln ratio); higher = more splicing; Tetrahymena group I intron in knt gene, E. coli kanamycin selection, DiMSum; sequences stand for … in CUCUCU…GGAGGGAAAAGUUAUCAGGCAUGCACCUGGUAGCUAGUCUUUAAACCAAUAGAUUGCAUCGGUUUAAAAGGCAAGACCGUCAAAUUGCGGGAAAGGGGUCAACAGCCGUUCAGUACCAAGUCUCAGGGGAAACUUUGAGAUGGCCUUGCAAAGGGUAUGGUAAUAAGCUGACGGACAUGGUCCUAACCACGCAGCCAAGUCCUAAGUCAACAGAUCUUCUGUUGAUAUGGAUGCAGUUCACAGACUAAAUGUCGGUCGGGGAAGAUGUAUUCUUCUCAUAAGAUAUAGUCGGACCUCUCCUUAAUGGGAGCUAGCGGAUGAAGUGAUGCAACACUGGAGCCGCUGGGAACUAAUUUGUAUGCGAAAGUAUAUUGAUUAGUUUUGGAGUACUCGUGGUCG; settings: 30 °C
Would you mind labelling by self-splicing fitness (ln)? At or over -2 is 1.0, under is 0.0.

Past entries and their recorded results:
>>> category_label("UCCAAGCAAUAUUACGGUGG")
0.0
>>> category_label("UAGCAGCAAUAUUACGCGGC")
0.0
>>> category_label("AUUGAGCAAUAUUACGUAGA")
0.0
>>> category_label("UACUAGCAAUAUUACGGUCA")
1.0
>>> category_label("GCUGAGCAAUAUUACGUGCA")
1.0

Reported self-splicing fitness (ln) reaches at least -2 for ACUCAGCAAUAUUACGCCCU ? 1.0

Reported self-splicing fitness (ln) reaches at least -2 for AUAAAGCAAUAUUACGGUGG ? 0.0

Reported self-splicing fitness (ln) reaches at least -2 for CUCAAGCAAUAUUACGACAU ? 0.0

Reported self-splicing fitness (ln) reaches at least -2 for AAUAAGCAAUAUUACGUGGC ? 0.0

Reported self-splicing fitness (ln) reaches at least -2 for CCCGAGCAAUAUUACGCCUA ? 1.0

====

assay: self-splicing fitness, log relative to wild type (ln ratio); higher = more splicing; Tetrahymena group I intron in knt gene, E. coli kanamycin selection, DiMSum; sequences stand for … in CUCUCU…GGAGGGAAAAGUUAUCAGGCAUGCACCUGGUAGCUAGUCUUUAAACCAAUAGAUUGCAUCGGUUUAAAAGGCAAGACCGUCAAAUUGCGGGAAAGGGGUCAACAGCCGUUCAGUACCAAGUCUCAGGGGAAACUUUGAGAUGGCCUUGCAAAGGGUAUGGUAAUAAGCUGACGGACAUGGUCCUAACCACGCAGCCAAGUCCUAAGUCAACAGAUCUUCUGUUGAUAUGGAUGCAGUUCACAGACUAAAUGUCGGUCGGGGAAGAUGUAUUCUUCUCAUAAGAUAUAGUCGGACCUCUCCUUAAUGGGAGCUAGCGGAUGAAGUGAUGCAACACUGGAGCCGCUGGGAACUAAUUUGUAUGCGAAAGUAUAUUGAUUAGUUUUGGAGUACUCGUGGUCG; conditions: 37 °C
Would you mind labelling by self-splicing fitness (ln)? At or over -2 is 1.0, under is 0.0.

Past entries and their recorded results:
>>> category_label("CUUGAGCAAUAUUACGGAGG")
1.0
>>> category_label("UGAAAGCAAUAUUACGCAUC")
0.0

Reported self-splicing fitness (ln) reaches at least -2 for GCGCAGCAAUAUUACGAACG ? 1.0

Reported self-splicing fitness (ln) reaches at least -2 for GAGGAGCAAUAUUACGCAUG ? 0.0

Reported self-splicing fitness (ln) reaches at least -2 for AACUAGCAAUAUUACGUCUU ? 1.0

====

assay: self-splicing fitness, log relative to wild type (ln ratio); higher = more splicing; Tetrahymena group I intron in knt gene, E. coli kanamycin selection, DiMSum; sequences stand for … in CUCUCU…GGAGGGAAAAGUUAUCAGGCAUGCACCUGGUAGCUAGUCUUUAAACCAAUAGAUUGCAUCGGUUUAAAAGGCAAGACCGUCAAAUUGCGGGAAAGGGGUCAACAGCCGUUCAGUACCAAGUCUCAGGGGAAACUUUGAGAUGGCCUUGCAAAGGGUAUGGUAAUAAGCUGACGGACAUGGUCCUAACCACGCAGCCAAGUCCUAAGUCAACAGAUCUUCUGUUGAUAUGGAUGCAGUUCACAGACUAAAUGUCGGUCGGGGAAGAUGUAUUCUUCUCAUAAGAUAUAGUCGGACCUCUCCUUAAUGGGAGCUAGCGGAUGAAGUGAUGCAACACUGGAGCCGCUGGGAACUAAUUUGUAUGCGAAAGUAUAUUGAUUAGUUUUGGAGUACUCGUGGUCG; settings: 30 °C
Class field: derived from self-splicing fitness (ln); ranges interval 1 (below -3), interval 2 (-3 to below -1), interval 3 (-1 or more)

Past entries and their recorded results:
>>> category_label("UCCGAGCAAUAUUACGGUGG")
"interval 2"
>>> category_label("CCCCAGCAAUAUUACGGUGG")
"interval 1"
>>> category_label("AACCAGCAAUAUUACGACUA")
"interval 3"
>>> category_label("UCUGAGCAAUAUUACGUUAA")
"interval 1"
>>> category_label("UAAGAGCAAUAUUACGGGAA")
"interval 2"
>>> category_label("AGUCAGCAAUAUUACGGCGC")
"interval 3"
>>> category_label("ACAAAGCAAUAUUACGCUAG")
"interval 2"
>>> category_label("AGGCAGCAAUAUUACGGACG")
"interval 3"

Hey, which category is CCGGAGCAAUAUUACGUGUU in, do you know? interval 1

Hey, which category is GUCUAGCAAUAUUACGAGUA in, do you know? interval 2

Hey, which category is AGCUAGCAAUAUUACGUUGC in, do you know? interval 1
